# ASSAYED_SYSTEM: mPAD4 (Mus musculus, UniProt Q9Z183)
# Sequence (Q9Z183 whole entry): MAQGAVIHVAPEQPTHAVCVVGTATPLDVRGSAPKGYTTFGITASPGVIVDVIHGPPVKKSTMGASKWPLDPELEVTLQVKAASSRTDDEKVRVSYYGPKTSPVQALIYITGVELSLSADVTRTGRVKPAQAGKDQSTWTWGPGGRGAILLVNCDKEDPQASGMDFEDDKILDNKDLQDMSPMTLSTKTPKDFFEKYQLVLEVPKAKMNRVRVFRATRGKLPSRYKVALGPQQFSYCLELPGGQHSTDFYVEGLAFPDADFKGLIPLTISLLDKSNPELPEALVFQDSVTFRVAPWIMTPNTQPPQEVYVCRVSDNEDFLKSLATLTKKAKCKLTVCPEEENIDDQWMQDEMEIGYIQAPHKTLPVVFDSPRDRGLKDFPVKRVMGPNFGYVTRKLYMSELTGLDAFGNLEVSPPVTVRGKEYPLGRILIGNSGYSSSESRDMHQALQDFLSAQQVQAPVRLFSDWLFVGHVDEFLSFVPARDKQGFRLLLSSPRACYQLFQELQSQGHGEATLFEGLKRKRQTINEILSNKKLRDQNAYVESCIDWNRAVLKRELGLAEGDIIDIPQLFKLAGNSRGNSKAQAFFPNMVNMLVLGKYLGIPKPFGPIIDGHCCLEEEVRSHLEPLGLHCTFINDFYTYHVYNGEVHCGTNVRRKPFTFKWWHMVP
# PROTOCOL_NOTES: PAD4 inhibition assay, RapidFire mass spectrometry (mPAD4 RFMS)
# Format: biochemical
# STUDY_CONDITIONS: read-out: mPAD4 RFMS IC50
Overview of reported IC50 across a group of compounds:

COMPOUND	IC50
Cn1c(-c2cc3cc(F)c(F)nc3n2CC2CC2)nc2cc(C(=O)N3CCC[C@@H](N)C3)cnc21	≤ 1000 nM
CCn1c(-c2nc3cc(C(=O)N4CCC[C@@H](N)C4)cnc3n2CCOC)cc2ccc(OC)nc21	1000 to 5000 nM
Cn1c(-c2cc3cccnc3n2CC2CC2)nc2cc(C(=O)N3CC[C@@H]4CCN[C@@H]4C3)cnc21 [Compound I-26]	5000 to 10000 nM
CO[C@]1(C)C[C@H](Cn2c(-c3cc4cccnc4n3CC3CC3)nc3cc(C(=O)N4C[C@H]5CC[C@@H]4[C@@H]5N)cnc32)C1	≤ 1000 nM
COc1ccc2cc(-c3nc4cc(C(=O)N5C[C@H]6CC[C@@H]5[C@@H]6N)cnc4n3C[C@H]3C[C@@](C)(OC)C3)n(CC3CC3)c2n1	≤ 1000 nM
Cn1c(-c2cc3cc(F)c(F)cc3n2CC2CC2)nc2cc(C(=O)N3CCC[C@@H](N)C3)cnc21	≤ 1000 nM
Cn1c(-c2cc3cccnc3n2CC2CC2)nc2cc(C(=O)N3CCC[C@@H](N)C3)cnc21	≤ 1000 nM

###

# ASSAYED_SYSTEM: mPAD4 (Mus musculus)
# PROTOCOL_NOTES: PAD4 inhibition assay, RapidFire mass spectrometry (mPAD4 RFMS)
# Assay type: biochemical
# STUDY_CONDITIONS: pIC50=-log(IC50); read-out: mPAD4 RFMS pIC50 (converted)

SMILES_STR	IC50
CCn1c(-c2nc3cc(C(=O)N4CCC[C@@H](N)C4)cnc3n2CC)cc2cccnc21	1000 to 10000 nM
Cn1c(-c2cc3cc(F)c(F)nc3n2CC2CC2)nc2cc(C(=O)N3CCC[C@@H](N)C3)cnc21	≤ 1000 nM
COCCn1c(-c2cc3cccnc3n2CC2CC2)nc2cc(C(=O)N3CCC[C@@H](N)C3)cnc21	1000 to 10000 nM
Cn1c(-c2cc3cc(F)c(F)cc3n2CC2CC2)nc2cc(C(=O)N3CCC[C@@H](N)C3)cnc21	≤ 1000 nM
CCn1c(-c2nc3cc(C(=O)N4C[C@H]5CC[C@@H]4[C@@H]5N)cnc3n2C)cc2cccnc21	1000 to 10000 nM
N[C@@H]1CCCN(C(=O)c2cnc3c(c2)nc(-c2cc4cccnc4n2CC2CC2)n3CC(F)F)C1	1000 to 10000 nM
COCCn1c(-c2cc3ccc(OC)nc3n2CC2CC2)nc2cc(C(=O)N3C[C@H]4CC[C@@H]3[C@@H]4N)cnc21	≤ 1000 nM

###

# ASSAYED_SYSTEM: UniProtKB Q9UM07
# Sequence (Q9UM07 whole entry): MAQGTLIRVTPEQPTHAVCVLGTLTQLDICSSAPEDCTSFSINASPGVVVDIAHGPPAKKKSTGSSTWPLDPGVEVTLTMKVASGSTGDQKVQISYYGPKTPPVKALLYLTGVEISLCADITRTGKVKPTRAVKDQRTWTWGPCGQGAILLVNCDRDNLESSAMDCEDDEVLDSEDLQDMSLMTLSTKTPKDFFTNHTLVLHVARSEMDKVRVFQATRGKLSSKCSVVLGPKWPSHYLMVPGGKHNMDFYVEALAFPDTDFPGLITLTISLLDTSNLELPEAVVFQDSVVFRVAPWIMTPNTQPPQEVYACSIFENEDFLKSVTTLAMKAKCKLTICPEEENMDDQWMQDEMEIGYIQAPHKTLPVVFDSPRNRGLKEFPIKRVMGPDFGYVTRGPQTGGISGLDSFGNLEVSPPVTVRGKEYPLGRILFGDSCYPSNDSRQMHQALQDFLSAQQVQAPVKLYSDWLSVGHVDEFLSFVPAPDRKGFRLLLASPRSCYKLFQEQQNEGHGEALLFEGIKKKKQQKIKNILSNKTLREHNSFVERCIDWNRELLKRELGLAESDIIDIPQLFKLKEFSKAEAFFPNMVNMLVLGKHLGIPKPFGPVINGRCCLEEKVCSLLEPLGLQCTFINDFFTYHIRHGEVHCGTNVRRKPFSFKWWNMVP
# PROTOCOL_NOTES: PAD4 inhibition assay, RapidFire mass spectrometry (hPAD4 RFMS)
# Assay type: biochemical
# STUDY_CONDITIONS: pIC50=-log(IC50); read-out: hPAD4 RFMS pIC50 (converted)

SMILES_STR	IC50
CCn1c(-c2nc3cc(C(=O)N4CCC[C@@H](N)C4)cnc3n2CCOC)cc2ccc(OC)nc21	1 to 10 µM
COCCn1c(-c2cc3cccnc3n2CC2CC2)nc2cc(C(=O)N3CCC[C@@H](N)C3)cnc21	1 to 10 µM
Cn1c(-c2cc3ccc(C(F)(F)F)nc3n2CC2CC2)nc2cc(C(=O)N3C[C@H]4CC[C@@H]3[C@@H]4N)cnc21	≤ 1 µM
CCn1c(-c2nc3cc(C(=O)N4CCC[C@@H](N)C4)cnc3n2CC)cc2cccnc21	1 to 10 µM
Cn1c(-c2cc3cc(F)c(F)nc3n2CC2CC2)nc2cc(C(=O)N3CCC[C@@H](N)C3)cnc21	1 to 10 µM
Cn1c(-c2cc3cccnc3n2CC2CC2)nc2cc(C(=O)N3C[C@H]4CC[C@@H]3[C@@H]4N)cnc21	≤ 1 µM
Cn1c(-c2cc3cccnc3n2CC(F)(F)F)nc2cc(C(=O)N3CC[C@H]4CCN[C@H]4C3)cnc21	10 to 100 µM
CCn1c(-c2nc3cc(C(=O)N4C[C@H]5CC[C@@H]4[C@@H]5N)cnc3n2CCOC)cc2ccc(OC)nc21	≤ 1 µM
COCCn1c(-c2cc3cccnc3n2CC2CC2)nc2cc(C(=O)N3C[C@H]4CC[C@@H]3[C@@H]4N)cnc21	≤ 1 µM
COc1ccc2cc(-c3nc4cc(C(=O)N5C[C@H]6CC[C@@H]5[C@@H]6N)cnc4n3C)n(CC3CC3)c2n1	≤ 1 µM
Cn1c(-c2cc3cccnc3n2CC2CC2)nc2cc(C(=O)N3CCC[C@@H](N)C3)cnc21	1 to 10 µM
Cn1c(-c2cc3cccnc3n2CC(C)(F)F)nc2cc(C(=O)N3CCC[C@@H](N)C3)cnc21	1 to 10 µM
Cn1c(-c2cc3cc(F)c(F)cc3n2CC2CC2)nc2cc(C(=O)N3CCC[C@@H](N)C3)cnc21	1 to 10 µM
CCn1c(-c2nc3cc(C(=O)N4C[C@H]5CC[C@@H]4[C@@H]5N)cnc3n2CCOC)cc2cccnc21	1 to 10 µM
CCn1c(-c2nc3cc(C(=O)N4C[C@H]5CC[C@@H]4[C@@H]5N)cnc3n2C)cc2cccnc21	1 to 10 µM
